Each entry below lists one item and its recorded IC50 value.
System: Plasmodium falciparum
Assay: Antiplasmodial activity against Plasmodium falciparum K1 assessed as reduction in parasite growth
Assay type: functional, organism-based

| smiles representation | reading unit | IC50 |
| --- | --- | --- |
| CC(=O)c1cccc(N[C@H]2[C@H](N)[C@](C)(NC(=O)N(C)C)[C@@](C)(O)[C@@]2(O)COC(=O)c2c(C)cccc2O)c1 | nM | 77 |
| CC(=O)c1cccc(N[C@H]2[C@H](N)[C@@](NC(=O)N(C)C)([C@H](C)O)[C@@](C)(O)[C@@]2(O)COC(=O)c2c(C)cccc2O)c1 | nM | 187 |
| CC(=O)c1cccc(N[C@H]2[C@H](N)[C@](C)(NC(=O)N(C)C)[C@@](C)(O)[C@@]2(O)CO)c1 | nM | 62 |
